Where do the numbers come from? From patent US7511144B2.

Record type: IC50 measurement. Applies to: Human MMP2 (Homo sapiens, UniProt P08253)
Recorded Endpoint: IC50 (µM)

[[record]]
compound = "Cc1cc(COc2ccc(S(=O)(=O)CC(C=C3CCSCC3)N(O)C=O)cc2)c2ccccc2n1 (centres unmarked)"
qual = "="
test_result = 55

[[record]]
compound = "CC(=O)N1CCC(=CC(CS(=O)(=O)c2ccc(OCc3cc(C)nc4ccccc34)cc2)N(O)C=O)CC1 (centres unmarked)"
qual = "="
test_result = 41

[[record]]
compound = "Cc1cc(COc2ccc(S(=O)(=O)CC(CN3CCN(S(C)(=O)=O)CC3)N(O)C=O)cc2)c2ccccc2n1 (centres unmarked)"
qual = "="
test_result = 22

[[record]]
compound = "O=CN(O)C(C=C1CCC2(CC1)OCCO2)CS(=O)(=O)c1ccc(OCc2ccc3ccccc3n2)cc1 (centres unmarked)"
qual = "="
test_result = 7

[[record]]
compound = "Cc1cc(COc2ccc(S(=O)(=O)CC(c3ccccc3C)N(O)C=O)cc2)c2cc(F)ccc2n1 (centres unmarked)"
qual = "="
test_result = 58

[[record]]
compound = "Cc1cc(COc2ccc(S(=O)(=O)CC(CC3CCN(C(=O)c4ccccc4)CC3)N(O)C=O)cc2)c2ccccc2n1 (centres unmarked)"
qual = "="
test_result = 1.4

[[record]]
compound = "O=CN(O)C(C=C1CCC(=O)CC1)CS(=O)(=O)c1ccc(OCc2ccc3ccccc3n2)cc1 (centres unmarked)"
qual = "="
test_result = 6.6

[[record]]
compound = "Cc1cc(COc2ccc(S(=O)(=O)CC(C3CCC(=O)CC3)N(O)C=O)cc2)c2ccccc2n1 (centres unmarked)"
qual = "="
test_result = 30

[[record]]
compound = "Cc1cc(Cl)cc(COc2ccc(S(=O)(=O)CC(C3CCC4(CC3)OCCO4)N(O)C=O)cc2)c1 (centres unmarked)"
qual = "="
test_result = 2

[[record]]
compound = "Cc1cc(COc2ccc(S(=O)(=O)CC(C=C3CCOCC3)N(O)C=O)cc2)c2ccccc2n1 (centres unmarked) [Example I-9]"
qual = "="
test_result = 60

[[record]]
compound = "Cc1cc(COc2ccc(S(=O)(=O)CC(C3CCC(=NOC=O)CC3)N(O)C=O)cc2)c2ccccc2n1 (centres unmarked)"
qual = "="
test_result = 40

[[record]]
compound = "Cc1cc(Cl)cc(COc2ccc(S(=O)(=O)CC(C=C3CCC4(CC3)OCCO4)N(O)C=O)cc2)c1 (centres unmarked)"
qual = "="
test_result = 38

[[record]]
compound = "CCC(CC)C(=O)N1CCC(=CC(CS(=O)(=O)c2ccc(OCc3cc(C)nc4ccccc34)cc2)N(O)C=O)CC1 (centres unmarked)"
qual = "="
test_result = 18

[[record]]
compound = "Cc1cc(COc2ccc(S(=O)(=O)CC(C=C3CCN(C(=O)C(C)(C)C)CC3)N(O)C=O)cc2)c2ccccc2n1 (centres unmarked)"
qual = "="
test_result = 1.3

[[record]]
compound = "CC(=O)N1CCCC(C(CS(=O)(=O)c2ccc(OCc3cc(C)nc4ccccc34)cc2)N(O)C=O)C1 (centres unmarked)"
qual = "="
test_result = 28

[[record]]
compound = "Cc1cc(Cl)cc(COc2ccc(S(=O)(=O)CC(CC3CCC4(CC3)OCCO4)N(O)C=O)cc2)c1 (centres unmarked)"
qual = "="
test_result = 5

[[record]]
compound = "Cc1cc(C)cc(COc2ccc(S(=O)(=O)CC(C=C3CCC4(CC3)OCCO4)N(O)C=O)cc2)c1 (centres unmarked)"
qual = "="
test_result = 43

[[record]]
compound = "COc1cc(C)cc(COc2ccc(S(=O)(=O)CC(C=C3CCC4(CC3)OCCO4)N(O)C=O)cc2)c1 (centres unmarked)"
qual = ">"
test_result = 100

[[record]]
compound = "Cc1cccc(CCC(CS(=O)(=O)c2ccc(OCc3cc(C)nc4ccccc34)cc2)N(O)C=O)c1 (centres unmarked)"
qual = "="
test_result = 30

[[record]]
compound = "Cc1cc(Cl)cc(COc2ccc(S(=O)(=O)CC(CC3CCC(=NO)CC3)N(O)C=O)cc2)c1 (centres unmarked)"
qual = "="
test_result = 4

[[record]]
compound = "COCc1cc(COc2ccc(S(=O)(=O)CC(C=C3CCC4(CC3)OCCO4)N(O)C=O)cc2)cc(C)n1 (centres unmarked)"
qual = "="
test_result = 20

[[record]]
compound = "Cc1cc(COc2ccc(S(=O)(=O)CC(c3ccccc3C)N(O)C=O)cc2)c2ccccc2n1 (centres unmarked)"
qual = "="
test_result = 30

[[record]]
compound = "Cc1ccc(C(C)(CS(=O)(=O)c2ccc(OCc3cc(C)nc4ccccc34)cc2)N(O)C=O)cc1 (centres unmarked)"
qual = ">"
test_result = 100

[[record]]
compound = "Cc1cc(COc2ccc(S(=O)(=O)CC(C=C3CCOCC3)N(O)C=O)cc2)c2ccccc2n1 (single isomer, unassigned) [Example I-34]"
qual = ">"
test_result = 100

[[record]]
compound = "Cc1cc(COc2ccc(S(=O)(=O)CC(N(O)C=O)C3(C)CCC(O)CC3)cc2)c2ccccc2n1 (centres unmarked)"
qual = ">"
test_result = 100

[[record]]
compound = "COCOC1CCC(C)(C(CS(=O)(=O)c2ccc(OCc3cc(C)nc4ccccc34)cc2)N(O)C=O)CC1 (centres unmarked)"
qual = "="
test_result = 43

[[record]]
compound = "CCC(CC)CN1CCC(CC(CS(=O)(=O)c2ccc(OCc3cc(C)nc4ccccc34)cc2)N(O)C=O)CC1 (centres unmarked)"
qual = "="
test_result = 0.78

[[record]]
compound = "Cc1cc(Cl)cc(COc2ccc(S(=O)(=O)CC(C=C3CCC(=NO)CC3)N(O)C=O)cc2)c1 (centres unmarked)"
qual = "="
test_result = 20

[[record]]
compound = "COCc1cc(COc2ccc(S(=O)(=O)CC(C=C3CCOCC3)N(O)C=O)cc2)cc(C)n1 (centres unmarked)"
qual = "="
test_result = 26


----------
Record type: IC50 measurement. Applies to: Human MMP14 (Homo sapiens, UniProt P50281)
Recorded Endpoint: IC50 (µM)

[[record]]
compound = "Cc1cc(COc2ccc(S(=O)(=O)CC(N(O)C=O)C3(C)CCOCC3)cc2)c2ccccc2n1 (stereo not shown)"
recorded_endpoint = "IC50"
unit_of_measure = "µM"
qual = ">"
test_result = 100

[[record]]
compound = "Cc1ccc(C(C)(CS(=O)(=O)c2ccc(OCc3cc(C)nc4ccccc34)cc2)N(O)C=O)cc1 (stereo not shown)"
recorded_endpoint = "IC50"
unit_of_measure = "µM"
qual = "="
test_result = 33

[[record]]
compound = "Cc1cc(C)cc(COc2ccc(S(=O)(=O)CC(C=C3CCC(=O)CC3)N(O)C=O)cc2)c1 (stereo not shown)"
recorded_endpoint = "IC50"
unit_of_measure = "µM"
qual = ">"
test_result = 100

[[record]]
compound = "Cc1cc(COc2ccc(S(=O)(=O)CC(C=C3CCC(=NO)CC3)N(O)C=O)cc2)c2ccccc2n1 (stereo not shown)"
recorded_endpoint = "IC50"
unit_of_measure = "µM"
qual = "="
test_result = 50

[[record]]
compound = "Cc1cc(COc2ccc(S(=O)(=O)CC(C=C3CCSCC3)N(O)C=O)cc2)c2ccccc2n1 (stereo not shown)"
recorded_endpoint = "IC50"
unit_of_measure = "µM"
qual = "="
test_result = 50

[[record]]
compound = "Cc1cc(COc2ccc(S(=O)(=O)N3CCSC(C)(C)[C@@H]3C(=O)NO)cc2)cc(C)n1 [compound 1, reference compound]"
recorded_endpoint = "IC50"
unit_of_measure = "µM"
qual = "="
test_result = 8

[[record]]
compound = "Cc1cc(COc2ccc(S(=O)(=O)CC(CC3CCC(=O)CC3)N(O)C=O)cc2)c2ccccc2n1 (stereo not shown)"
recorded_endpoint = "IC50"
unit_of_measure = "µM"
qual = "="
test_result = 53


----------
Target: Human MMP1 (Homo sapiens, UniProt P03956)
Construct: purchased Calbiochem 444208
Sequence (P03956 100-469): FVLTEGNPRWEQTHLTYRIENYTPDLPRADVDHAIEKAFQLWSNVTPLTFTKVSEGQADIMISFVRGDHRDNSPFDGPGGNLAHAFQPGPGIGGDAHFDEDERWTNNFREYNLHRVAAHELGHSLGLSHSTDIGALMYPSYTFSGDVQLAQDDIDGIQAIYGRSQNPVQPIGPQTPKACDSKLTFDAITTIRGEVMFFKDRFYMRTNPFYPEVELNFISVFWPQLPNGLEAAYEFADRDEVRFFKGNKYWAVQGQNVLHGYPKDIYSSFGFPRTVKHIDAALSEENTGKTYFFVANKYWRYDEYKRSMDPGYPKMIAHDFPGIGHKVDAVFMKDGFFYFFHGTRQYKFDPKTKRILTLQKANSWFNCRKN
Experiment: MMP1 inhibition experiment
Format: biochemical
Details: read-out: IC50 value MMP-1
IC50 vs 60 µM: less than gives Yes; not less than gives No.

[[record]]
compound = "Cc1cc(COc2ccc(S(=O)(=O)CC(CCC3=CCCC(OC=O)C3)N(O)C=O)cc2)c2ccccc2n1 (centres unmarked)"
answer_label = "Yes"

[[record]]
compound = "CCC(CC)C(=O)N1CCC(=CC(CS(=O)(=O)c2ccc(OCc3cc(C)nc4ccccc34)cc2)N(O)C=O)CC1 (centres unmarked)"
answer_label = "No"

[[record]]
compound = "Cc1cc(COc2ccc(S(=O)(=O)CC(CC3CCN(S(C)(=O)=O)CC3)N(O)C=O)cc2)c2ccccc2n1 (centres unmarked)"
answer_label = "No"

[[record]]
compound = "Cc1cc(COc2ccc(S(=O)(=O)CC(C(Cl)=C3CCOCC3)N(O)C=O)cc2)c2ccccc2n1 (centres unmarked)"
answer_label = "No"

[[record]]
compound = "Cc1cc(Cl)cc(COc2ccc(S(=O)(=O)CC(CC3CCC(=NO)CC3)N(O)C=O)cc2)c1 (centres unmarked)"
answer_label = "Yes"

[[record]]
compound = "CCC(CC)C(=O)N1CCCC(C(CS(=O)(=O)c2ccc(OCc3cc(C)nc4ccccc34)cc2)N(O)C=O)C1 (centres unmarked)"
answer_label = "Yes"

[[record]]
compound = "CC(=O)N1CCC(=CC(CS(=O)(=O)c2ccc(OCc3cc(C)nc4ccccc34)cc2)N(O)C=O)CC1 (centres unmarked)"
answer_label = "No"

[[record]]
compound = "Cc1cccc(CCC(CS(=O)(=O)c2ccc(OCc3cc(C)nc4ccccc34)cc2)N(O)C=O)n1 (centres unmarked)"
answer_label = "No"

[[record]]
compound = "Cc1cc(Cl)cc(COc2ccc(S(=O)(=O)CC(C=C3CCC(=NO)CC3)N(O)C=O)cc2)c1 (centres unmarked)"
answer_label = "No"

[[record]]
compound = "COc1cc(C)cc(COc2ccc(S(=O)(=O)CC(C=C3CCC(=O)CC3)N(O)C=O)cc2)c1 (centres unmarked)"
answer_label = "No"

[[record]]
compound = "Cc1cc(COc2ccc(S(=O)(=O)CC(C3CCOCC3)N(O)C=O)cc2)c2ccccc2n1 (centres unmarked)"
answer_label = "No"

[[record]]
compound = "COCc1cc(COc2ccc(S(=O)(=O)CC(C=C3CCC(=O)CC3)N(O)C=O)cc2)cc(C)n1 (centres unmarked)"
answer_label = "No"

[[record]]
compound = "Cc1cc(COc2ccc(S(=O)(=O)CC(c3ccccc3C)N(O)C=O)cc2)c2cc(F)ccc2n1 (centres unmarked)"
answer_label = "No"

[[record]]
compound = "C=C1CCC(C(CS(=O)(=O)c2ccc(OCc3cc(C)nc4ccccc34)cc2)N(O)C=O)CC1 (centres unmarked)"
answer_label = "Yes"

[[record]]
compound = "Cc1cc(COc2ccc(S(=O)(=O)CC(C=C3CCN(C(=O)OC(C)(C)C)CC3)N(O)C=O)cc2)c2ccccc2n1 (centres unmarked)"
answer_label = "No"

[[record]]
compound = "CCC(CC)CN1CCC(=CC(CS(=O)(=O)c2ccc(OCc3cc(C)nc4ccccc34)cc2)N(O)C=O)CC1 (centres unmarked)"
answer_label = "No"

[[record]]
compound = "CCC(CC)C(=O)N1CCC(C(CS(=O)(=O)c2ccc(OCc3cc(C)nc4ccccc34)cc2)N(O)C=O)CC1 (centres unmarked)"
answer_label = "Yes"

[[record]]
compound = "Cc1cc(C)cc(COc2ccc(S(=O)(=O)CC(C=C3CCC(=O)CC3)N(O)C=O)cc2)c1 (centres unmarked)"
answer_label = "No"

[[record]]
compound = "Cc1cc(COc2ccc(S(=O)(=O)CC(C=C3CCOCC3)N(O)C=O)cc2)cc(C)n1 (centres unmarked)"
answer_label = "No"

[[record]]
compound = "Cc1ccc2nc(C)cc(COc3ccc(S(=O)(=O)CC(C=C4CCC(=NO)CC4)N(O)C=O)cc3)c2c1 (centres unmarked)"
answer_label = "No"

[[record]]
compound = "Cc1cc(COc2ccc(S(=O)(=O)CC(C3CCCN(C(=O)OC(C)(C)C)C3)N(O)C=O)cc2)c2ccccc2n1 (centres unmarked)"
answer_label = "No"

[[record]]
compound = "Cc1cc(C)cc(COc2ccc(S(=O)(=O)CC(C=C3CCC4(CC3)OCCO4)N(O)C=O)cc2)c1 (centres unmarked)"
answer_label = "No"

[[record]]
compound = "Cc1cc(COc2ccc(S(=O)(=O)CC(C=C3CCC(=O)CC3)N(O)C=O)cc2)c2ccccc2n1 (centres unmarked)"
answer_label = "No"

[[record]]
compound = "Cc1cc(Cl)cc(COc2ccc(S(=O)(=O)CC(CC3CCC4(CC3)OCCO4)N(O)C=O)cc2)c1 (centres unmarked)"
answer_label = "Yes"

[[record]]
compound = "Cc1cc(COc2ccc(S(=O)(=O)CC(N(O)C=O)C3(C)CCOCC3)cc2)c2ccccc2n1 (centres unmarked)"
answer_label = "No"

[[record]]
compound = "Cc1cc(COc2ccc(S(=O)(=O)CC(C3CCCN(C(=O)c4ccccc4)C3)N(O)C=O)cc2)c2ccccc2n1 (centres unmarked)"
answer_label = "Yes"

